Data origin: PubChem BioAssay (EPA / NIEHS)

# experiment-description: Tanguay_ZF_120hpf_AXIS: Oregon State University Tanguay Lab 120 Hour Post-fertilization zebrafish Assay for Axial Malformation (AID 2284398)
Activity calls are given as the source filed them. How the source made its calls: active means hit-call score of the fitted dose curve at least 0.9, where 1 is the maximum; inactive means score below 0.9.
Can you answer with just one of these options? TRUE for active, FALSE for inactive

Some entries whose results are on file:
{"molecule": "C=C(C)C(=O)OCCC(F)(F)C(F)(F)C(F)(F)C(F)(F)C(F)(C(F)(F)F)C(F)(F)F", "group": "FALSE"}
{"molecule": "O=C(O)C(F)(OC(F)(F)C(F)(OC(F)(F)C(F)(F)C(F)(F)F)C(F)(F)F)C(F)(F)F (stereo unspecified)", "group": "FALSE"}
{"molecule": "Cc1ccc(S(=O)(=O)OCC(F)(F)C(F)(F)C(F)(F)C(F)(F)C(F)(F)C(F)F)cc1", "group": "FALSE"}
{"molecule": "FC(F)(F)C(F)(F)C(F)(F)N(C(F)(F)C(F)(F)C(F)(F)F)C(F)(F)C(F)(F)C(F)(F)F", "group": "FALSE"}
{"molecule": "OCCCC(F)(F)C(F)(F)C(F)(F)F", "group": "FALSE"}

Asked: Assay result, entry O=C(O)C(F)(F)C(F)(F)C(F)(F)C(F)(F)C(F)(F)C(F)(F)C(F)(F)C(F)(F)Cl — outcome?
Given back: TRUE

Asked: Field: outcome | Entry: FC(F)(F)C(F)(F)C(F)(F)CI
Given back: FALSE

Asked: # lookup: test call for C=CC(F)(F)C(F)(F)C(F)(F)C(F)(F)C(F)(F)C(F)(F)C(F)(F)C(F)(F)F
Given back: FALSE

Asked: Given CCCCCCCCC(F)(F)C(F)(F)C(F)(F)C(F)(F)C(F)(F)C(F)(F)F , state the outcome it received in this test.
Given back: FALSE

Asked: Test call for this molecule, please: C=CC(=O)OCC(F)(F)C(F)(F)C(F)(F)C(F)(F)C(F)(F)C(F)(F)C(F)(F)F
Given back: FALSE

Asked: Check the results log: what was the call for FC1CC(F)(F)C(F)(F)C1(F)F (stereo unspecified) ?
Given back: FALSE

Asked: Just curious, what result did OCC(F)(F)C(F)(F)C(F)(F)F get here?
Given back: FALSE

Asked: For O=C(O)C(F)(F)C(F)(F)OC(F)(F)F , what call appears in the results of this test?
Given back: FALSE

----------
# Read-out: Interleukin 6 (IL6), IL6 (gene 3569)
# experiment-description: BSK_BT_xIL6: BioMAP Diversity Plus: BT Assay for Interleukin 6 (IL6) Biomarker Activity (AID 2284228)
# setup-conditions: primary human B cells with PBMC
# Experimental: BSK_BT is a cell-based, multiplexed-readout assay that uses B cell and peripheral blood mononuclear cells, a human vascular primary cell co-culture, with measurements taken at 24 hours after chemical dosing in a microplate: 96-well plate.BSK_BT_xIL6 is an assay component measured in the BSK_BT assay. […] Using a type of cytokine quantitation reporter, gain or loss-of-signal activity can be used to understand protein changes. […]
Calls of active or inactive are those of the source. The calls were made as follows: active = hit-call score of the fitted dose curve at least 0.9, where 1 is the maximum; inactive = score below 0.9.
Assign a class; possible classes are True for active, False for inactive

// below: answered compounds
{"compound": "CC(CCl)OP(=O)(OC(C)CCl)OC(C)CCl (stereo unspecified)", "group": "False"}
{"compound": "FC(F)(F)C(F)(F)C(F)(F)C(F)(F)C(F)(F)C(F)(F)CC1CO1 (stereo unspecified)", "group": "False"}
{"compound": "FC(F)(F)C(F)(F)CNCC(F)(F)C(F)(F)F", "group": "False"}
{"compound": "O=C(O)C(F)(F)C(F)(F)C(F)(F)C(F)(F)C(F)(F)C(F)(F)C(F)(F)C(F)(F)Cl", "group": "False"}

Asked: Dear colleague, could you share the recorded outcome for FC(F)(F)C(F)(F)C(F)(F)CI when you have a moment?
Given back: False

Asked: Query: recorded result category for CCN(CC)c1ccc2c(C)cc(=O)oc2c1 in this test
Given back: True

----------
# experiment-description: ATG_E_Box_CIS: Attagene CIS-FACTORIAL HepG2 Assay for human Enhancer Box (E-box) (AID 2282936)
# setup-conditions: HepG2 E-box cis-reporter transcription, actives raise or lower the signal
Calls of active or inactive are those of the source. The calls were made as follows: active = hit-call score of the fitted dose curve at least 0.9, where 1 is the maximum; inactive = score below 0.9.
Bench note: report the call from label 1 (active), label 0 (inactive)

See these solved cases before continuing.
{"compound": "Nc1cc(Cl)c(N)c(Cl)c1", "group": "label 0"}
{"compound": "CNC(=S)NC", "group": "label 0"}
{"compound": "CCCCCCCCCCCCCCCC[N+](C)(C)Cc1ccccc1", "group": "label 1"}
{"compound": "Cc1cc(C)cc(O)c1", "group": "label 0"}
{"compound": "O=C(CC(=O)C(F)(F)C(F)(F)F)C(F)(F)F", "group": "label 0"}
{"compound": "OCC(F)(F)C(F)(F)C(F)(F)C(F)(F)C(F)(F)C(F)F", "group": "label 0"}
{"compound": "CCCCC(CC)COP(=O)(O)OCC(CC)CCCC (stereo not drawn)", "group": "label 0"}
{"compound": "COC(=O)CCC(F)(F)C(F)(F)C(F)(F)C(F)(F)F", "group": "label 0"}

Asked: Per the assay record, what outcome was assigned to FC(F)(F)C(F)(F)C(F)(F)C(F)(F)C(F)(F)C(F)(F)CC1CO1 (stereo not drawn) ?
Given back: label 0

Asked: Query: recorded result category for CCCCNc1ccccc1 in this test
Given back: label 0

Asked: Which outcome was entered for the compound N=C(N)C(F)(F)C(F)(F)C(F)(F)C(F)(F)C(F)(F)C(F)(F)C(F)(F)F in this test?
Given back: label 1

Asked: Fill in: this test's call for CC(CCl)OP(=O)(OC(C)CCl)OC(C)CCl (stereo not drawn) is ___
Given back: label 0

Asked: I'd appreciate the recorded outcome for CN(C)Cc1ccccc1O from this test.
Given back: label 0

Asked: Give the logged outcome of this assay for the following compound: OCC(F)(F)C(F)(F)C(F)(F)C(F)F
Given back: label 0

Asked: For CCCCOc1ccc(N)cc1 , what call appears in the results of this test?
Given back: label 0

Asked: How was OCC(F)(F)C(F)(F)C(F)(F)F classified in this test?
Given back: label 0

----------
# Read-out: Macrophage colony-stimulating factor (MCSF), CSF1 (gene 1435)
# experiment-description: BSK_LPS_MCSF: BioMAP Diversity Plus: LPS Assay for Macrophage colony-stimulating factor (MCSF) Biomarker Activity (AID 2283083)
# setup-conditions: primary human HUVEC with PBMC; actives raise or lower the signal
# Experimental: BSK_LPS is a cell-based, multiplexed-readout assay that uses umbilical vein endothelium and peripheral blood mononuclear cells, a human vascular primary cell co-culture, with measurements taken at 24 hours after chemical dosing in a 96-well plate.BSK_LPS_MCSF is an assay component measured in the BSK_LPS assay. It measures M-CSF antibody related to regulation of gene expression using ELISA technology.Data from the assay component BSK_LPS_MCSF was analyzed into 1 assay endpoint. […]
Calls of active or inactive are those of the source. Rule for the calls: active = hit-call score of the fitted dose curve at least 0.9, where 1 is the maximum; inactive = score below 0.9.
// one of active, inactive, no free text

{"compound": "FC(F)(F)C(F)(F)C(F)(F)C(F)(F)C(F)(F)C(F)(F)C(F)(F)Br", "group": "inactive"}
{"compound": "FC1CC(F)(F)C(F)(F)C1(F)F (stereo unspecified)", "group": "inactive"}
{"compound": "FC(F)(F)C(F)(F)C(F)(F)C(F)(F)C(F)(F)C(F)(F)CC1CO1 (stereo unspecified)", "group": "inactive"}
{"compound": "O=C(O)C(F)(F)C(F)(F)C(F)F", "group": "inactive"}
{"compound": "C=CC(F)(F)C(F)(F)C(F)(F)C(F)(F)C(F)(F)C(F)(F)C(F)(F)C(F)(F)C=C", "group": "inactive"}
{"compound": "O=C(O)C(F)(F)C(F)(F)F", "group": "inactive"}

Asked: Short answer needed: outcome of this test for FC(F)(F)C(F)(F)C(F)(F)C(F)(F)C(F)(F)CCI ?
Given back: inactive

Asked: Call for entry O=C(O)C(F)(F)C(F)(F)C(F)(F)F :
Given back: inactive

Asked: Which outcome was entered for the compound C=C(C)C(=O)OCC(F)(F)C(F)(F)C(F)(F)F in this test?
Given back: inactive

Asked: // return assay outcome for CCCCCCCCCCCCCCCC[N+](C)(C)Cc1ccccc1
Given back: active

----------
# Read-out: E-selectin (Homo sapiens) (UniProt P16581)
# Sequence (P16581 whole entry, looked up): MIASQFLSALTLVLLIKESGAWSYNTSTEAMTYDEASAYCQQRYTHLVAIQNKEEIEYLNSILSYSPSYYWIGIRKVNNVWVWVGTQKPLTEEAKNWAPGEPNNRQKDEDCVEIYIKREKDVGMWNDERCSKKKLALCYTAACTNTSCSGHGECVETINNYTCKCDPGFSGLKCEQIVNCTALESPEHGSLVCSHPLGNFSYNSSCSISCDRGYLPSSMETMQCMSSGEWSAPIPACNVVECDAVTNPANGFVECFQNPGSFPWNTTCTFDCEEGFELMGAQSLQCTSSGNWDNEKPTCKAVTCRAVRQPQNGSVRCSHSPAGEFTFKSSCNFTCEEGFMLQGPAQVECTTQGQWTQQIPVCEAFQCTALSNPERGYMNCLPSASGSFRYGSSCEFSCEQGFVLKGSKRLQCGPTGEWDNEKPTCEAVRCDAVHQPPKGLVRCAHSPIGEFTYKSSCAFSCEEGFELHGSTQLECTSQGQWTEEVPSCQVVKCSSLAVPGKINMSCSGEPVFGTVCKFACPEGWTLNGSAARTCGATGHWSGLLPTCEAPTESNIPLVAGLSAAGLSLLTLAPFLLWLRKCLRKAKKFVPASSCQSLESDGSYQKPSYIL
# experiment-description: BSK_3C_Eselectin: BioMAP Diversity Plus: 3C Assay for Eselectin Biomarker Activity (AID 2283015)
# setup-conditions: primary human endothelial cells (HUVEC); actives raise or lower the signal
The source made the active and inactive calls. How the source made its calls: active means hit-call score of the fitted dose curve at least 0.9, where 1 is the maximum; inactive means score below 0.9.
Field 'call' accepts active, inactive

{"compound": "O=C(O)C(F)(F)C(F)(F)C(F)(F)F", "group": "inactive"}
{"compound": "FC(F)(F)C(F)(F)C(F)(F)N(C(F)(F)C(F)(F)C(F)(F)F)C(F)(F)C(F)(F)C(F)(F)F", "group": "inactive"}
{"compound": "OCCCC(F)(F)C(F)(F)C(F)(F)F", "group": "inactive"}
{"compound": "O=C(O)C(F)(F)C(F)(F)OC(F)(F)F", "group": "inactive"}
{"compound": "O=C(O)C(F)(OC(F)(F)C(F)(OC(F)(F)C(F)(F)C(F)(F)F)C(F)(F)F)C(F)(F)F (stereo unspecified)", "group": "inactive"}
{"compound": "FC(F)(F)C(F)(F)C(F)(F)C(F)(F)C(F)(F)C(F)(F)C(F)(F)Br", "group": "inactive"}
{"compound": "FC(F)(F)C(F)(F)CNCC(F)(F)C(F)(F)F", "group": "inactive"}
{"compound": "CO[Si](OC)(c1ccccc1)c1ccccc1", "group": "active"}

Asked: I'd appreciate the recorded outcome for O=S(=O)(OCC(F)F)C(F)(F)F from this test.
Given back: inactive

Asked: Dear all, I need the recorded test outcome for CS(C)(=O)=O , thank you.
Given back: inactive

Asked: Outcome? CC(C)(C)C(=O)CC(=O)C(F)(F)C(F)(F)C(F)(F)F
Given back: inactive
